Where these numbers come from: the RNAGym collection of RNA variant scans (doi:10.1093/molbev/msab373)

B1: Azoarcus group I ribozyme (parent)
chain: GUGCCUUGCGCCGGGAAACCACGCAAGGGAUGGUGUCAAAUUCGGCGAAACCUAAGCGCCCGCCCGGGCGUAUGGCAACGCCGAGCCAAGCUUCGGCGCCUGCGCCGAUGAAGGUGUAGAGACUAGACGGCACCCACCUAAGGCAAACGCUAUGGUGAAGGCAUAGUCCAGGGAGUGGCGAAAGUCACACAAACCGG

# Variants of: B1
# assay-details: reverse-splicing fitness (ratio to wild type); higher = more active; in vitro selection; Mg2+ level not given
Below, each of the variants is paired with its reported reverse-splicing fitness value.
assay-readout: reverse-splicing fitness

{"variant-annotation": "C82U A111G A120G A145G C150G C169G U176C", "experimental-value": 0.011}
{"variant-annotation": "C82U A111G A120C C169U", "experimental-value": 0.0118}
{"variant-annotation": "C82U A120U A145C C150U C169G", "experimental-value": 0.00257}
{"variant-annotation": "A111C A120U A145G C150A C169U U176C", "experimental-value": 0.00638}
{"variant-annotation": "C82U A111U A120U A145U C169G U176A", "experimental-value": 0.00244}
{"variant-annotation": "C82U A111U A120U A145U C150G C169G U176C", "experimental-value": 0.00288}
{"variant-annotation": "A111C A145U C150U U176C", "experimental-value": 0.36}
{"variant-annotation": "C82U A111C A120U A145C C150G C169A U176C", "experimental-value": 0.00245}
{"variant-annotation": "C82G A111U A120C C150G C169A", "experimental-value": 0.00975}
{"variant-annotation": "C82U A111C A120G A145C C150G", "experimental-value": 0.007}
{"variant-annotation": "C82G A111U A120U A145G C150A U176A", "experimental-value": 0.00769}
{"variant-annotation": "C82U A111U A120C A145U C150U C169A U176C", "experimental-value": 0.00781}
{"variant-annotation": "C82U A111G A120U A145C C169A", "experimental-value": 0.00224}
{"variant-annotation": "A111U A145C C150U C169U U176G", "experimental-value": 0.00571}
{"variant-annotation": "C82G A120G A145G", "experimental-value": 0.0281}
{"variant-annotation": "C82U A111U A120G C150A C169U U176A", "experimental-value": 0.0209}
{"variant-annotation": "C82G A111U A120G A145U U176C", "experimental-value": 0.0193}
{"variant-annotation": "C82U A145U C150G C169U U176G", "experimental-value": 0.00514}
{"variant-annotation": "C82G A145U C150A C169U U176C", "experimental-value": 0.013}
{"variant-annotation": "C82U A111C A120U A145C C150G C169U U176A", "experimental-value": 0.00332}
{"variant-annotation": "A111C C150A U176C", "experimental-value": 0.147}
{"variant-annotation": "C82G A111C A120U C150U C169G U176A", "experimental-value": 0.00503}
